All figures here come from ChEMBL document CHEMBL1201862.

Some molecules, each annotated with its measured GI50.
test system: M14; assay: NCI tumour cell line growth inhibition, 48 h
Calls of active or inactive are those of the source. Rule as the data show it: active = GI50 up to about 1.1 µM and inactive = higher.
endpoint.name: GI50

>>> value_observed("COC(=O)c1cc(-c2ccc3ccccc3c2)nc(O)c1C#N")
"> 100 µM (inactive)"
>>> value_observed("CCOC(=O)CCc1c(C)c2ccc(O)cc2oc1=O")
"> 100 µM (inactive)"
>>> value_observed("Cc1ccc(S(=O)(=O)OC2CN3CCC2CC3)cc1 (stereo unspecified)")
"> 100 µM (inactive)"
>>> value_observed("CN(C)c1ccc(C(C#N)N2CCCN(C(C#N)c3ccc(N(C)C)cc3)C2c2ccc(N(C)C)cc2)cc1 (stereo unspecified)")
"> 100 µM (inactive)"
>>> value_observed("COc1cc2c(cc1Cc1c(F)cccc1Cl)nc(-c1c(F)cccc1Cl)n2Cc1c(F)cccc1Cl")
"> 100 µM (inactive)"
>>> value_observed("Fc1ccc(/C=C2\\COCC3=C2NC(=S)NC3c2ccc(F)cc2)cc1 (stereo unspecified)")
"16.4 µM (inactive)"
